Values from ChEMBL document CHEMBL5705893

test system: SF-539; assay: Antiproliferative activity against human SF-539 cells assessed as inhibition of cell growth incubated for 72 hrs by celltiter-glo assay; assay type: functional, cell-based; conditions: SF-539, 72 h
RECORDED METRIC: IC50

{"ENTRY SMILES": "CCc1cccc(CC)c1NC(=O)c1nn(C)c2c1CCc1cnc(Nc3ccc(C(=O)NC4CCN(C)CC4)cc3OC(F)(F)F)nc1-2", "TESTED ON": "SF-539", "RECORDED VALUE": "807 nM"}

---

test: Volume of distribution at steady state in Athymic nu-nu mouse at 10 mg/kg, iv measured upto 24 hrs by LC-MS/MS analysis; assay type: ADME, organism-based; conditions: in vivo, read-out: Vdss

{"ENTRY SMILES": "CCc1cccc(CC)c1NC(=O)c1nn(C)c2c1CCc1cnc(Nc3ccc(C(=O)NC4CCN(C)CC4)cc3OC(F)(F)F)nc1-2", "Vd [L/kg]": 5.45}
